Value source: the supplement of paper PMC10307832

Reported relative viability by item:
Tested on: NCI-H322M
assay-protocol: relative viability (nuclei count vs DMSO), 5 days (fraction); higher = more cells survive
conditions: first compound 8 µM
readout-type: relative viability

>>> experimental_result("Nc1cccc2c1CN(C1CCC(=O)NC1=O)C2=O (stereo not drawn) [Lenalidomide] + O=C(c1cc(Cc2n[nH]c(=O)c3ccccc23)ccc1F)N1CCN(C(=O)C2CC2)CC1 [Olaparib] (partner 8 µM)")
0.945
>>> experimental_result("Nc1cccc2c1CN(C1CCC(=O)NC1=O)C2=O (stereo not drawn) [Lenalidomide] + CC1(C)CCC(c2ccc(Cl)cc2)=C(CN2CCN(c3ccc(C(=O)NS(=O)(=O)c4ccc(N[C@H](CCN5CCOCC5)CSc5ccccc5)c(S(=O)(=O)C(F)(F)F)c4)cc3)CC2)C1 [Navitoclax] (partner 0.5 µM)")
0.965
>>> experimental_result("Nc1cccc2c1CN(C1CCC(=O)NC1=O)C2=O (stereo not drawn) [Lenalidomide] + CCNC(=O)c1noc(-c2cc(C(C)C)c(O)cc2O)c1-c1ccc(CN2CCOCC2)cc1 [Luminespib] (partner 0.01 µM)")
1.01

###

Tested on: NCI-H2347
assay-protocol: relative viability (nuclei count vs DMSO), 5 days (fraction); higher = more cells survive
conditions: first compound 0.2 µM
readout-type: relative viability

>>> experimental_result("CCNC(=O)c1noc(-c2cc(C(C)C)c(O)cc2O)c1-c1ccc(CN2CCOCC2)cc1 [Luminespib] + Nc1nc2[nH]cc(CCc3ccc(C(=O)N[C@@H](CCC(=O)O)C(=O)O)cc3)c2c(=O)[nH]1 [Pemetrexed] (partner 0.2 µM)")
0.317
>>> experimental_result("CCNC(=O)c1noc(-c2cc(C(C)C)c(O)cc2O)c1-c1ccc(CN2CCOCC2)cc1 [Luminespib] + CS(=O)(=O)N1CCN(Cc2cc3nc(-c4cccc5[nH]ncc45)nc(N4CCOCC4)c3s2)CC1 [Pictilisib] (partner 1 µM)")
0.4
>>> experimental_result("CCNC(=O)c1noc(-c2cc(C(C)C)c(O)cc2O)c1-c1ccc(CN2CCOCC2)cc1 [Luminespib] + Cc1nc(Nc2ncc(C(=O)Nc3c(C)cccc3Cl)s2)cc(N2CCN(CCO)CC2)n1 [Dasatinib] (partner 0.075 µM)")
0.198
>>> experimental_result("Cc1csc(=NC2CCCCC2)n1/N=C/c1ccc(O)c(O)c1O [MIM1] + C[C@@H](Oc1cc(-c2cnn(C3CCNCC3)c2)cnc1N)c1c(Cl)ccc(F)c1Cl [Crizotinib] (partner 1 µM)")
0.584

###

// reported relative viability for each item listed
System: H3255
assay-protocol: relative viability (nuclei count vs DMSO), 5 days (fraction); higher = more cells survive
conditions: first compound 0.02 µM
readout-type: relative viability

>>> experimental_result("CN1CCN(CCOc2cc(OC3CCOCC3)c3c(Nc4c(Cl)ccc5c4OCO5)ncnc3c2)CC1 [Saracatinib] + Cc1nc(NC(=O)N2CCC[C@H]2C(N)=O)sc1-c1ccnc(C(C)(C)C(F)(F)F)c1 [Alpelisib] (partner 2 µM)")
0.624
>>> experimental_result("CN1CCN(CCOc2cc(OC3CCOCC3)c3c(Nc4c(Cl)ccc5c4OCO5)ncnc3c2)CC1 [Saracatinib] + Cc1nc(Nc2ncc(C(=O)Nc3c(C)cccc3Cl)s2)cc(N2CCN(CCO)CC2)n1 [Dasatinib] (partner 0.075 µM)")
0.389
>>> experimental_result("CN1CCN(CCOc2cc(OC3CCOCC3)c3c(Nc4c(Cl)ccc5c4OCO5)ncnc3c2)CC1 [Saracatinib] + O=C(c1cc(Cc2n[nH]c(=O)c3ccccc23)ccc1F)N1CCN(C(=O)C2CC2)CC1 [Olaparib] (partner 8 µM)")
0.623
>>> experimental_result("CN1CCN(CCOc2cc(OC3CCOCC3)c3c(Nc4c(Cl)ccc5c4OCO5)ncnc3c2)CC1 [Saracatinib] + C[C@@H](Oc1cc(-c2cnn(C3CCNCC3)c2)cnc1N)c1c(Cl)ccc(F)c1Cl [Crizotinib] (partner 1 µM)")
0.865

###

Tested on: NCI-H1944
assay-protocol: relative viability (nuclei count vs DMSO), 5 days (fraction); higher = more cells survive
conditions: first compound 0.8 µM
readout-type: relative viability

>>> experimental_result("Nc1cccc2c1CN(C1CCC(=O)NC1=O)C2=O (stereo not drawn) [Lenalidomide] + CS(=O)(=O)CCNCc1ccc(-c2ccc3ncnc(Nc4ccc(OCc5cccc(F)c5)c(Cl)c4)c3c2)o1 [Lapatinib] (partner 2 µM)")
0.59
>>> experimental_result("Nc1cccc2c1CN(C1CCC(=O)NC1=O)C2=O (stereo not drawn) [Lenalidomide] + Cc1cc(Nc2cc(N3CCN(C)CC3)nc(Sc3ccc(NC(=O)C4CC4)cc3)n2)n[nH]1 [Tozasertib] (partner 0.1 µM)")
0.278
>>> experimental_result("Nc1cccc2c1CN(C1CCC(=O)NC1=O)C2=O (stereo not drawn) [Lenalidomide] + Cc1nc(NC(=O)N2CCC[C@H]2C(N)=O)sc1-c1ccnc(C(C)(C)C(F)(F)F)c1 [Alpelisib] (partner 2 µM)")
0.934

###

Test system: NCI-H2342
assay-protocol: relative viability (nuclei count vs DMSO), 5 days (fraction); higher = more cells survive
conditions: first compound 2 µM
The label is t for relative viability below 0.6 and f for relative viability equal to or exceeding 0.6.

>>> category_label("CN1CCN(CCOc2cc(OC3CCOCC3)c3c(Nc4c(Cl)ccc5c4OCO5)ncnc3c2)CC1 [Saracatinib] + Nc1ncn([C@H]2C[C@H](O)[C@@H](CO)O2)c(=O)n1 [Decitabine] (partner 2 µM)")
"f"
>>> category_label("CN1CCN(CCOc2cc(OC3CCOCC3)c3c(Nc4c(Cl)ccc5c4OCO5)ncnc3c2)CC1 [Saracatinib] + CC(=O)Nc1cccc(-n2c(=O)n(C3CC3)c(=O)c3c(Nc4ccc(I)cc4F)n(C)c(=O)c(C)c32)c1 [Trametinib] (partner 0.02 µM)")
"f"
>>> category_label("CN1CCN(CCOc2cc(OC3CCOCC3)c3c(Nc4c(Cl)ccc5c4OCO5)ncnc3c2)CC1 [Saracatinib] + O=C(c1cc(Cc2n[nH]c(=O)c3ccccc23)ccc1F)N1CCN(C(=O)C2CC2)CC1 [Olaparib] (partner 8 µM)")
"t"
>>> category_label("Cc1csc(=NC2CCCCC2)n1/N=C/c1ccc(O)c(O)c1O [MIM1] + CCNC(=O)c1noc(-c2cc(C(C)C)c(O)cc2O)c1-c1ccc(CN2CCOCC2)cc1 [Luminespib] (partner 0.01 µM)")
"f"
>>> category_label("CN1CCN(CCOc2cc(OC3CCOCC3)c3c(Nc4c(Cl)ccc5c4OCO5)ncnc3c2)CC1 [Saracatinib] + O=C(CCCCCCC(=O)Nc1ccccc1)NO [Vorinostat] (partner 1 µM)")
"f"
>>> category_label("Cc1csc(=NC2CCCCC2)n1/N=C/c1ccc(O)c(O)c1O [MIM1] + Nc1ncn([C@H]2C[C@H](O)[C@@H](CO)O2)c(=O)n1 [Decitabine] (partner 2 µM)")
"f"

###

relative viability values by entry
System: NCI-H1944
assay-protocol: relative viability (nuclei count vs DMSO), 5 days (fraction); higher = more cells survive
conditions: first compound 6.325 µM
readout-type: relative viability

>>> experimental_result("Cc1csc(=NC2CCCCC2)n1/N=C/c1ccc(O)c(O)c1O [MIM1] + CC1(C)CCC(c2ccc(Cl)cc2)=C(CN2CCN(c3ccc(C(=O)NS(=O)(=O)c4ccc(N[C@H](CCN5CCOCC5)CSc5ccccc5)c(S(=O)(=O)C(F)(F)F)c4)cc3)CC2)C1 [Navitoclax] (partner 0.5 µM)")
0.938
>>> experimental_result("Cc1csc(=NC2CCCCC2)n1/N=C/c1ccc(O)c(O)c1O [MIM1] + NC(=O)Nc1cc(-c2cccc(F)c2)sc1C(=O)N[C@H]1CCCNC1 [AZD7762] (partner 0.2 µM)")
0.397
>>> experimental_result("Cc1csc(=NC2CCCCC2)n1/N=C/c1ccc(O)c(O)c1O [MIM1] + Cc1nc(NC(=O)N2CCC[C@H]2C(N)=O)sc1-c1ccnc(C(C)(C)C(F)(F)F)c1 [Alpelisib] (partner 2 µM)")
0.733
>>> experimental_result("Cc1csc(=NC2CCCCC2)n1/N=C/c1ccc(O)c(O)c1O [MIM1] + CCNC(=O)c1noc(-c2cc(C(C)C)c(O)cc2O)c1-c1ccc(CN2CCOCC2)cc1 [Luminespib] (partner 0.01 µM)")
0.517
>>> experimental_result("Cc1csc(=NC2CCCCC2)n1/N=C/c1ccc(O)c(O)c1O [MIM1] + CC(=O)Nc1cccc(-n2c(=O)n(C3CC3)c(=O)c3c(Nc4ccc(I)cc4F)n(C)c(=O)c(C)c32)c1 [Trametinib] (partner 0.02 µM)")
0.364
>>> experimental_result("Cc1csc(=NC2CCCCC2)n1/N=C/c1ccc(O)c(O)c1O [MIM1] + C[C@]1(O)C[C@@H](c2nc(-c3ccc4ccc(-c5ccccc5)nc4c3)c3c(N)nccn32)C1 [Linsitinib] (partner 1 µM)")
1

###

System: NCI-H1299
assay-protocol: relative viability (nuclei count vs DMSO), 5 days (fraction); higher = more cells survive
conditions: first compound 0.6325 µM
Listed below: relative viability values for each entry.
readout-type: relative viability

>>> experimental_result("Cc1csc(=NC2CCCCC2)n1/N=C/c1ccc(O)c(O)c1O [MIM1] + CC(C)C[C@H](NC(=O)[C@H](Cc1ccccc1)NC(=O)c1cnccn1)B(O)O [Bortezomib] (partner 0.002 µM)")
1.03
>>> experimental_result("CN1CCN(CCOc2cc(OC3CCOCC3)c3c(Nc4c(Cl)ccc5c4OCO5)ncnc3c2)CC1 [Saracatinib] + O=C(c1cc(Cc2n[nH]c(=O)c3ccccc23)ccc1F)N1CCN(C(=O)C2CC2)CC1 [Olaparib] (partner 8 µM)")
1.12
>>> experimental_result("Cc1csc(=NC2CCCCC2)n1/N=C/c1ccc(O)c(O)c1O [MIM1] + CS(=O)(=O)N1CCN(Cc2cc3nc(-c4cccc5[nH]ncc45)nc(N4CCOCC4)c3s2)CC1 [Pictilisib] (partner 1 µM)")
0.791
>>> experimental_result("CN1CCN(CCOc2cc(OC3CCOCC3)c3c(Nc4c(Cl)ccc5c4OCO5)ncnc3c2)CC1 [Saracatinib] + C[C@]1(O)C[C@@H](c2nc(-c3ccc4ccc(-c5ccccc5)nc4c3)c3c(N)nccn32)C1 [Linsitinib] (partner 1 µM)")
0.979
>>> experimental_result("Cc1csc(=NC2CCCCC2)n1/N=C/c1ccc(O)c(O)c1O [MIM1] + O=C(c1cc(Cc2n[nH]c(=O)c3ccccc23)ccc1F)N1CCN(C(=O)C2CC2)CC1 [Olaparib] (partner 8 µM)")
0.954
>>> experimental_result("Cc1csc(=NC2CCCCC2)n1/N=C/c1ccc(O)c(O)c1O [MIM1] + CS(=O)(=O)CCNCc1ccc(-c2ccc3ncnc(Nc4ccc(OCc5cccc(F)c5)c(Cl)c4)c3c2)o1 [Lapatinib] (partner 2 µM)")
0.954
>>> experimental_result("CN1CCN(CCOc2cc(OC3CCOCC3)c3c(Nc4c(Cl)ccc5c4OCO5)ncnc3c2)CC1 [Saracatinib] + CS(=O)(=O)CCNCc1ccc(-c2ccc3ncnc(Nc4ccc(OCc5cccc(F)c5)c(Cl)c4)c3c2)o1 [Lapatinib] (partner 2 µM)")
1
